The entries below are paired with their reported Reaction.
Test: In vitro susceptibility to nucleophilic attack by reduced glutathione at 37 degree C and at pH 7.4
Type: ADME

molecule	Reaction (%)
CC(C)COC(=O)Oc1ccc2nc(S(N)(=O)=O)sc2c1	50
CC(C)(C)C(=O)Oc1ccc2nc(S(N)(=O)=O)sc2c1	50
CC(=O)Nc1nnc(S(N)(=O)=O)s1 [ACETAZOLAMIDE]	3
CC(C)C(=O)Oc1ccc2nc(S(N)(=O)=O)sc2c1	50
CCOc1ccc2nc(S(N)(=O)=O)sc2c1 [ETHOXZOLAMIDE]	36
NS(=O)(=O)c1nc2ccc(OC(=O)c3ccccc3)cc2s1	50
NS(=O)(=O)c1nc2ccc(O)cc2s1	27
CC(=O)/N=c1/sc(S(N)(=O)=O)nn1C [METHAZOLAMIDE]	27
NS(=O)(=O)c1nc2ccc(OC(=O)C3CCCCC3)cc2s1	50

----------
Organism: Oryctolagus cuniculus
Experiment: Corneal penetration rate constant (k) for excised intact cornea of albino rabbit
Format: functional
The entries below are paired with their reported log10(K).
measured property: log10(K) (log10 of the value in h⁻¹)

molecule	log10(K)
CCOC(C)(C)C(=O)Oc1ccc2nc(S(N)(=O)=O)sc2c1	-1.43
NS(=O)(=O)c1nc2ccc(OC(=O)C3CCCCC3)cc2s1	-1.15
CC(=O)Oc1ccc2nc(S(N)(=O)=O)sc2c1	-1.78
CCCC(=O)Oc1ccc2nc(S(N)(=O)=O)sc2c1	-1.27
NS(=O)(=O)c1nc2ccc(OC(=O)c3ccccc3)cc2s1	-1.46
CC(C)C(=O)Oc1ccc2nc(S(N)(=O)=O)sc2c1	-1.35
COCCOC(C)(C)C(=O)Oc1ccc2nc(S(N)(=O)=O)sc2c1	-2.01
CCOC(=O)Oc1ccc2nc(S(N)(=O)=O)sc2c1	-1.40
COC(C)(C)C(=O)Oc1ccc2nc(S(N)(=O)=O)sc2c1	-1.65
CCCCCC(=O)Oc1ccc2nc(S(N)(=O)=O)sc2c1	-1.82
CC(=O)/N=c1/sc(S(N)(=O)=O)nn1C [METHAZOLAMIDE]	-2.39
CC(C)COC(=O)Oc1ccc2nc(S(N)(=O)=O)sc2c1	-1.09

----------
Molecular target: Carbonic anhydrase 2 (Homo sapiens)
Assay: In vitro inhibitory activity against human Carbonic anhydrase II
Conditions: read-out: I50
pIC50: −log10 of the molar value.
Each entry gets -1 if its pIC50 stays under 8, and 1 if its pIC50 is 8 or above.

query smiles	group label
CN(C)c1ccc(C(=O)Oc2ccc3nc(S(N)(=O)=O)sc3c2)cc1	-1
CC(C)(C)C(=O)Oc1ccc2nc(S(N)(=O)=O)sc2c1N	-1
CCCCCCCC(=O)Oc1ccc2nc(S(N)(=O)=O)sc2c1	1
NS(=O)(=O)c1nc2ccc(OC(=O)Cc3ccccc3)cc2s1	-1
CCCCCCCCCCCC(=O)Oc1ccc2nc(S(N)(=O)=O)sc2c1	1
CN(C)Cc1ccc(C(=O)Oc2ccc3nc(S(N)(=O)=O)sc3c2)cc1	1

----------
Please consider the recorded IC50 for Carbonic anhydrase 2 (Homo sapiens) in what follows.
measured property: IC50

compound	measured property	test result
CCN(CC)CC1CCC(C(=O)Oc2ccc3nc(S(N)(=O)=O)sc3c2)CC1 (configuration not stated)	IC50	2.8 nM
NS(=O)(=O)c1nc2ccc(OC(=O)C3CCCCC3)cc2s1	IC50	6 nM
CC(C)C(=O)Oc1ccc2nc(S(N)(=O)=O)sc2c1	IC50	6.8 nM
Cn1cccc1C(=O)Oc1ccc2nc(S(N)(=O)=O)sc2c1	IC50	2.9 nM
CCOC(=O)Oc1ccc2nc(S(N)(=O)=O)sc2c1	IC50	6.8 nM
NS(=O)(=O)c1nc2cc(O)ccc2s1	IC50	5 nM
CCCC(=O)Oc1ccc2sc(S(N)(=O)=O)nc2c1	IC50	4 nM
COc1cccc(OC)c1C(=O)Oc1ccc2nc(S(N)(=O)=O)sc2c1	IC50	4 nM
CN(C)OS(=O)(=O)c1ccc2nc(S(N)(=O)=O)sc2c1	IC50	1.2 nM
CCCC(=O)Oc1ccc2nc(S(N)(=O)=O)sc2c1	IC50	3.2 nM
CCOC(C)(C)C(=O)Oc1ccc2nc(S(N)(=O)=O)sc2c1	IC50	1.2 nM
COCC(=O)Oc1ccc2nc(S(N)(=O)=O)sc2c1	IC50	3.5 nM
CC(=O)Oc1ccc2nc(S(N)(=O)=O)sc2c1	IC50	2 nM
CC(C)(C)OC(=O)Oc1ccc2nc(S(N)(=O)=O)sc2c1	IC50	10 nM
COC(C)(C)C(=O)Oc1ccc2nc(S(N)(=O)=O)sc2c1	IC50	1.2 nM
CC(C)COC(=O)Oc1ccc2nc(S(N)(=O)=O)sc2c1	IC50	2.2 nM
CN(C)C(=O)Oc1ccc2nc(S(N)(=O)=O)sc2c1	IC50	1.6 nM
CC(C)(C)C(=O)Nc1c(OC(=O)C(C)(C)C)ccc2nc(S(N)(=O)=O)sc12	IC50	32 nM
CCOCCOCCOC(C)(C)C(=O)Oc1ccc2nc(S(N)(=O)=O)sc2c1	IC50	3.2 nM
CCOP(=O)(OCC)Oc1ccc2nc(S(N)(=O)=O)sc2c1	IC50	1.8 nM
CCCCCC(=O)Oc1ccc2nc(S(N)(=O)=O)sc2c1	IC50	4 nM
COCCOC(C)(C)C(=O)Oc1ccc2nc(S(N)(=O)=O)sc2c1	IC50	1.4 nM

----------
Species on record: Oryctolagus cuniculus
Test: Corneal penetration rate constant (k) for excised denuded cornea of albino rabbit
Assay type: functional
The entries below are paired with their reported K.

query smiles	K
COC(C)(C)C(=O)Oc1ccc2nc(S(N)(=O)=O)sc2c1	0.019 h⁻¹
CC(C)COC(=O)Oc1ccc2nc(S(N)(=O)=O)sc2c1	0.0212 h⁻¹
CCCC(=O)Oc1ccc2nc(S(N)(=O)=O)sc2c1	0.0202 h⁻¹
NS(=O)(=O)c1nc2ccc(OC(=O)C3CCCCC3)cc2s1	0.0175 h⁻¹
CCOC(=O)Oc1ccc2nc(S(N)(=O)=O)sc2c1	0.0145 h⁻¹

----------
Organism: Oryctolagus cuniculus
Experiment: Corneal penetration rate constant (k) for excised denuded cornea of albino rabbit
Assay type: functional
Each entry gets not satisfied if its K stays under 0.02 h⁻¹, and satisfied if its K is 0.02 h⁻¹ or above.

query smiles	group label
CCCCCC(=O)Oc1ccc2nc(S(N)(=O)=O)sc2c1	not satisfied
CCOC(C)(C)C(=O)Oc1ccc2nc(S(N)(=O)=O)sc2c1	not satisfied
COCCOC(C)(C)C(=O)Oc1ccc2nc(S(N)(=O)=O)sc2c1	not satisfied
CC(C)C(=O)Oc1ccc2nc(S(N)(=O)=O)sc2c1	not satisfied
CC(=O)Oc1ccc2nc(S(N)(=O)=O)sc2c1	satisfied
NS(=O)(=O)c1nc2ccc(OC(=O)c3ccccc3)cc2s1	not satisfied

----------
Biological target: Carbonic anhydrase 2 (Homo sapiens)
Assay: In vitro inhibitory activity against human Carbonic anhydrase II
Conditions: read-out: I50
pIC50: −log10 of the molar value.
The entries below are paired with their reported pIC50.

query smiles	pIC50
NS(=O)(=O)c1nc2ccc(OC(=O)CC3CCCC3)cc2s1	8.22
NS(=O)(=O)c1nc2ccc(OC(=O)Cc3ccc(Cl)cc3)cc2s1	8.00
NS(=O)(=O)c1nc2ccc(OC(=O)/C=C/c3ccccc3)cc2s1	7.82
NS(=O)(=O)c1nc2ccc(OC(=O)c3ccccc3)cc2s1	8.10
